- tested system: Integrin alpha-V/beta-3 (Homo sapiens, UniProt P05106+P06756)
- Sequence (P05106 27-788 limits assumed): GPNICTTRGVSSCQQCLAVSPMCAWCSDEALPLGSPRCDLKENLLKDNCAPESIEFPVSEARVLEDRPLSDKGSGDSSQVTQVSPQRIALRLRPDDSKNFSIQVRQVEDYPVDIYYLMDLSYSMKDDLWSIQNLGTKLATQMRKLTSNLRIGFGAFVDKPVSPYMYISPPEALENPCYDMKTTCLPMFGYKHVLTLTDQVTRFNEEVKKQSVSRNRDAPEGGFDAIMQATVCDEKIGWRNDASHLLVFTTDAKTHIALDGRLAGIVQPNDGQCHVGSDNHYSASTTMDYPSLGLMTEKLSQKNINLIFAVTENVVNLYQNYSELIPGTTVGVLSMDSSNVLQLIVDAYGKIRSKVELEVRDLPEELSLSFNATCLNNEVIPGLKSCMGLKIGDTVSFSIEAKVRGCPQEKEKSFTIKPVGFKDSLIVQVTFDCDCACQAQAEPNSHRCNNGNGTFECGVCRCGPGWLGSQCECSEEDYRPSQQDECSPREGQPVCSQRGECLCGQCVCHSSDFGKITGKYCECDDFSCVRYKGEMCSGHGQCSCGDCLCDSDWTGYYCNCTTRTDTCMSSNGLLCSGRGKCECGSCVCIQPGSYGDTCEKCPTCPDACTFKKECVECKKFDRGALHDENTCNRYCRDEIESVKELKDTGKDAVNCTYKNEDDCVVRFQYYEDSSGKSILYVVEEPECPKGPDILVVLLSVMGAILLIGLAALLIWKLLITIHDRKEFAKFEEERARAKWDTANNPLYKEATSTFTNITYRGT
- Sequence (P06756 31-889 limits assumed): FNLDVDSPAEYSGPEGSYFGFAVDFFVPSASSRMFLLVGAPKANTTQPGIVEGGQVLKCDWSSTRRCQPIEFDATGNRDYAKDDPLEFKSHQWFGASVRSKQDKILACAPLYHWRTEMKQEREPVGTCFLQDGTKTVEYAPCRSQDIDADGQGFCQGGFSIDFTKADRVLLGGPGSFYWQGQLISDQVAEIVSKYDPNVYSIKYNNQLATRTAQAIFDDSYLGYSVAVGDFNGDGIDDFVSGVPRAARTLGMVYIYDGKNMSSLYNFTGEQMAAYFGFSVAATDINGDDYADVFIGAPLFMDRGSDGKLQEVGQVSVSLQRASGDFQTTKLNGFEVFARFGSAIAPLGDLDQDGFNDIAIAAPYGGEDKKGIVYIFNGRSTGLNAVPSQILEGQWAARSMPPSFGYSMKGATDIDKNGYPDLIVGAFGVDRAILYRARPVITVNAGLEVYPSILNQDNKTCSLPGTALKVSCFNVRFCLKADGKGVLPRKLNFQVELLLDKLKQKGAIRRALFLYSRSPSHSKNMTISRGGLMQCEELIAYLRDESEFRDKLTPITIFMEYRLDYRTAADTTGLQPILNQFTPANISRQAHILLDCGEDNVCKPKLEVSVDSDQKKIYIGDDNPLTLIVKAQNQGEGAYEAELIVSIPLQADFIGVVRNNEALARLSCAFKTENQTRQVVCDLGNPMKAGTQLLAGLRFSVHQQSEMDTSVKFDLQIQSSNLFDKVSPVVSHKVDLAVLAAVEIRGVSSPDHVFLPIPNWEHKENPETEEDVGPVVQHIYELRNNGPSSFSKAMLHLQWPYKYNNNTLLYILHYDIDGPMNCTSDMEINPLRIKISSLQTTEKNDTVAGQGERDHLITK
- Sequence (P06756 891-1048 limits assumed): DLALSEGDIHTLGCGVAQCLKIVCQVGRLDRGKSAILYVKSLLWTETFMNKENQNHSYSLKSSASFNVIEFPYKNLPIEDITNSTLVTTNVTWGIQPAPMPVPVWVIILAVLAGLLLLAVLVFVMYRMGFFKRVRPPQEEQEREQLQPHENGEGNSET
- experimental protocol: Inhibition of vitronectin binding to the purified immobilized vitronectin receptor (alpha v, beta 3).
- Type: protein-complex assay
pIC50: −log10 of the molar value.
outcome measure: pIC50

A selection of reference data follows.
CCCCS(=O)(=O)NC(CNC(=O)CCNC(=O)c1[nH]nc2cc(C(=N)N)ccc12)C(=O)O (centres undefined) ... < 4.00
N=C(N)c1ccc2oc(C(=O)NCCC(=O)NC(CC(=O)O)C(F)(F)F)cc2c1 (centres undefined) ... < 4.00
N=C(N)c1ccc2oc(C(=O)NCCC(=O)NC(CC(=O)O)c3cc(F)ccc3F)cc2c1 (centres undefined) ... < 4.00
N=C(N)c1ccc2oc(C(=O)NCCC(=O)NC(CC(=O)O)c3ccc(F)c(F)c3)cc2c1 (centres undefined) ... < 4.00
N=C(N)c1ccc2oc(C(=O)NCCC(=O)NCCC(=O)O)cc2c1 ... < 4.00

[in] // pIC50 lookup, key: CC(CC(=O)NC(CC(=O)O)c1ccccc1)NC(=O)c1cc2cc(C(=N)N)ccc2o1 (centres undefined)
[out] < 4.00

[in] For the compound N=C(N)c1ccc2oc(C(=O)NCCC(=O)NC(CC(=O)O)c3ccccc3)cc2c1 (centres undefined) , what pIC50 is on record?
[out] 4.22

[in] Name the reported pIC50 value associated with the compound CC(CC(=O)NC(CC(=O)O)c1ccccc1)NC(=O)c1cc2cc(C(=N)N)ccc2[nH]1 (centres undefined)
[out] 3.90

[in] What value of pIC50 has been reported for the following compound? N=C(N)c1ccc2oc(C(=O)NCCC(=O)NC(CC(=O)O)c3cc(F)cc(F)c3)cc2c1 (centres undefined)
[out] < 4.00
